Tested on: 945468-187-T-J2-PDC spheroids viability
Assay: Anticancer human tumor 945468-187-T-J2-PDC patient-derived rectal carcinoma cell line growth inhibition [PI3K]
Details: second compound 0.1 µM; first compound 0.1 µM; hits give low values; spheroids with HUVEC and MSC
readout_label: viability, T/C (%)
Write the value in % as a bare number.

Here is how some compounds turned out for viability, T/C.
| compound | subject_of_test | viability, T/C [%] |
| --- | --- | --- |
| CCN1CCN(Cc2ccc(Nc3ncc(F)c(-c4cc(F)c5nc(C)n(C(C)C)c5c4)n3)nc2)CC1 + CC(Nc1ncnc2nc[nH]c12)c1cc2cccc(Cl)c2c(=O)n1-c1ccccc1 | 945468-187-T-J2-PDC spheroids viability | 89.5 |
| CNC(=O)c1ccc(N2C(=S)N(c3ccc(C#N)c(C(F)(F)F)c3)C(=O)C2(C)C)cc1F + COc1c(OCCCN2CCOCC2)ccc2c3n(c(=NC(=O)c4cnc(N)nc4)nc12)CCN3 | 945468-187-T-J2-PDC spheroids viability | 94 |

Would you kindly look at the next entry?
What does the data say about its viability, T/C? Entry: Cn1ncnc1[C@H]1c2n[nH]c(=O)c3cc(F)cc(c23)N[C@@H]1c1ccc(F)cc1 + Cc1nc(NC(=O)N2CCCC2C(N)=O)sc1-c1ccnc(C(C)(C)C(F)(F)F)c1
131

###

Tested on: 945468-187-T-J2-PDC spheroids viability
Test: Anticancer human tumor 945468-187-T-J2-PDC cell line growth inhibition [PI3K];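 note: spheroids exposed to compounds for seven days before reading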
Conditions: second compound 0.01 µM; first compound 0.1 µM; hits give low values; spheroids with HUVEC and MSC
readout_label: viability, T/C (%)
API: value field is a number in %; no unit string.

| molecule | viability, T/C, % |
| --- | --- |
| C[C@@H](NC(=O)c1ncnc(N)c1Cl)c1ncc(C(=O)Nc2cc(C(F)(F)F)c(Cl)cn2)s1 + CC(Nc1ccc2c(c1)OCCn1cc(N3C(=O)OCC3C(F)F)nc1-2)C(N)=O | 71.4 |
| CC(C)n1nc(-c2ccc3oc(N)nc3c2)c2c(N)ncnc21 + COc1c(OCCCN2CCOCC2)ccc2c3n(c(=NC(=O)c4cnc(N)nc4)nc12)CCN3 | 66.1 |
| Cn1ncnc1[C@H]1c2n[nH]c(=O)c3cc(F)cc(c23)N[C@@H]1c1ccc(F)cc1 + CC(Nc1ccc2c(c1)OCCn1cc(N3C(=O)OCC3C(F)F)nc1-2)C(N)=O | 123 |
| CC(Cn1ccc(-c2ccc(C#N)c(Cl)c2)n1)NC(=O)c1cc(C(C)O)[nH]n1 (stereo unspecified) + CC(Nc1ccc2c(c1)OCCn1cc(N3C(=O)OCC3C(F)F)nc1-2)C(N)=O | 85.8 |
| Cn1ncnc1[C@H]1c2n[nH]c(=O)c3cc(F)cc(c23)N[C@@H]1c1ccc(F)cc1 + COc1c(OCCCN2CCOCC2)ccc2c3n(c(=NC(=O)c4cnc(N)nc4)nc12)CCN3 | 96.8 |
| CCN1CCN(Cc2ccc(Nc3ncc(F)c(-c4cc(F)c5nc(C)n(C(C)C)c5c4)n3)nc2)CC1 + CC(Nc1ccc2c(c1)OCCn1cc(N3C(=O)OCC3C(F)F)nc1-2)C(N)=O | 102 |

What viability, T/C value was documented for this molecule, C#Cc1c(F)ccc2cc(O)cc(-c3ncc4c(N5CC6CCC(C5)N6)nc(OCC56CCCN5CC(F)C6)nc4c3F)c12 (stereo unspecified) + CC(Nc1ccc2c(c1)OCCn1cc(N3C(=O)OCC3C(F)F)nc1-2)C(N)=O ?
105

Look up viability, T/C: Cn1nccc1Nc1nccc(-c2ccn(C(CO)c3ccc(Cl)c(F)c3)c(=O)c2)n1 (stereo unspecified) + COc1c(OCCCN2CCOCC2)ccc2c3n(c(=NC(=O)c4cnc(N)nc4)nc12)CCN3
93.7

Given C#Cc1c(F)ccc2cc(O)cc(-c3ncc4c(N5CC6CCC(C5)N6)nc(OCC56CCCN5CC(F)C6)nc4c3F)c12 (stereo unspecified) + COc1c(OCCCN2CCOCC2)ccc2c3n(c(=NC(=O)c4cnc(N)nc4)nc12)CCN3 , state its recorded viability, T/C.
98.8

# input molecule: CC(=O)c1c(C)c2cnc(Nc3ccc(N4CCNCC4)cn3)nc2n(C2CCCC2)c1=O + COc1c(OCCCN2CCOCC2)ccc2c3n(c(=NC(=O)c4cnc(N)nc4)nc12)CCN3 ; wanted: its viability, T/C
130

Which value of viability, T/C has been reported for CC(C)NCC(C(=O)N1CCN(c2ncnc3c2C(C)CC3O)CC1)c1ccc(Cl)cc1 (stereo unspecified) + CC(Nc1ccc2c(c1)OCCn1cc(N3C(=O)OCC3C(F)F)nc1-2)C(N)=O in the records?
92.3
